Assay: inhibitors of TNFa-induced NFkB p65 translocation, primary screen, imaging, HUVEC, MLSMR starter and 10KST1 sets (AID 438);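 further: compound added about 3h40 before a 20 min TNFalpha stimulation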
Settings: HUVEC TNFa-induced p65 nuclear translocation; measured here: nuclei count (cytotoxicity indicator), at 2.08 µM
I would appreciate it if you labelled entries 1 (yes) when cell count is 400 or higher, otherwise 0 (no).

{"Query Smiles": "O=C(NCc1cccs1)c1cc2c(s1)CS(=O)(=O)C2", "Class Name": "1 (yes)"}
{"Query Smiles": "Cc1c(C(=O)O)sc2ncn(C)c(=O)c12", "Class Name": "1 (yes)"}
{"Query Smiles": "Cc1nc2ccccn2c1C(=O)NCCCN1CCOCC1", "Class Name": "1 (yes)"}
{"Query Smiles": "CCN(C(=O)Cc1c(C(=O)O)[nH]c2ccccc12)c1cc(OC)ccc1OC", "Class Name": "1 (yes)"}
{"Query Smiles": "COc1ccc(OC)c(Nc2nc(-c3cccs3)cs2)c1", "Class Name": "0 (no)"}
{"Query Smiles": "O=c1ccn(Cc2ccccc2Cl)cc1", "Class Name": "1 (yes)"}
